TESTED ON: PIM-1 (Homo sapiens (Human), UniProt P11309)
Sequence (P11309 whole entry): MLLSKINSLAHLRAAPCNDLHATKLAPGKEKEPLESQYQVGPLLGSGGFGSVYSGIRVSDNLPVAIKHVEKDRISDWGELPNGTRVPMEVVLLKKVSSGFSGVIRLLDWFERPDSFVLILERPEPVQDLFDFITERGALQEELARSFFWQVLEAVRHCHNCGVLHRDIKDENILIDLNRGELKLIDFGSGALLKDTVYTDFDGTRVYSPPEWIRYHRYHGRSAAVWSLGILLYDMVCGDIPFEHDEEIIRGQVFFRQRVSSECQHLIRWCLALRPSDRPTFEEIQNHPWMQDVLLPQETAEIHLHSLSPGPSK
TEST DETAILS: Pim-1 kinase inhibition assay (Promega Kinase-Glo)
Assay type: biochemical
CONDITIONS USED: Table IV, read-out: Compound IC50 on Pim1
OBSERVABLE: IC50 (nM)
Output spec: scalar in nM, unitless text.

Asked: Recorded IC50 for "CC(C)(O)[C@H]1CC[C@H](Nc2ccc3ncc(-c4cccc(C(F)(F)F)c4)n3n2)CC1" , please?
Given back: 1

Asked: Repeat with "CC(C)(N)[C@H]1CC[C@H](Nc2ccc3ncc(-c4cccc(Cl)c4)n3n2)CC1"
Given back: 2

Asked: Repeat with "CO[C@H]1CC[C@H](Nc2ccc3ncc(-c4cccc(C(F)(F)F)c4)n3n2)CC1"
Given back: 115

###

# IC50 per entry
TESTED ON: PIM-1 (Homo sapiens (Human))
TEST DETAILS: Pim-1 kinase inhibition assay (Promega Kinase-Glo)
Assay type: biochemical
CONDITIONS USED: Table V, read-out: Compound IC50 on Pim1
Output spec: scalar in nM, unitless text.

C[C@]1(O)CC[C@H](Nc2ccc3nnc(-c4cccc(C(F)(F)F)c4)n3c2)CC1 ... 70

Asked: Recorded IC50 for "CO[C@H]1CC[C@H](Nc2ccc3nnc(-c4cccc(Cl)c4)n3c2)CC1" , please?
Given back: 722

Asked: Repeat with "CO[C@H]1CC[C@H](Nc2ccc3nnc(-c4cccc(OC(F)(F)F)c4)n3c2)CC1"
Given back: 83

###

# IC50 per entry
TESTED ON: PIM-1 (Homo sapiens (Human), UniProt P11309)
TEST DETAILS: Pim-1 kinase inhibition assay (Promega Kinase-Glo)
Type: biochemical
CONDITIONS USED: Table IV, read-out: Compound IC50 on Pim1
Output spec: scalar in nM, unitless text.

For orientation, consider the following solved cases.
N[C@H]1CC[C@H](Nc2ccc3ncc(-c4cccc(OC(F)(F)F)c4)n3n2)CC1 ... 4
C[C@]1(O)CC[C@H](Nc2ccc3ncc(-c4cccc(C(F)(F)F)c4)n3n2)CC1 ... 103
C[C@]1(O)CC[C@H](Nc2ccc3ncc(-c4cccc(Cl)c4)n3n2)CC1 ... 145

Note: attention shifts to another entry.
Asked: Give IC50 (PIM-1 (Homo sapiens (Human), UniProt P11309)) of the following compound: "CC(C)(O)[C@H]1CC[C@H](Nc2ccc3ncc(-c4cccc(Cl)c4)n3n2)CC1"
Given back: 4

###

TESTED ON: hERG (Homo sapiens (Human), UniProt Q12809)
Sequence (Q12809 whole entry): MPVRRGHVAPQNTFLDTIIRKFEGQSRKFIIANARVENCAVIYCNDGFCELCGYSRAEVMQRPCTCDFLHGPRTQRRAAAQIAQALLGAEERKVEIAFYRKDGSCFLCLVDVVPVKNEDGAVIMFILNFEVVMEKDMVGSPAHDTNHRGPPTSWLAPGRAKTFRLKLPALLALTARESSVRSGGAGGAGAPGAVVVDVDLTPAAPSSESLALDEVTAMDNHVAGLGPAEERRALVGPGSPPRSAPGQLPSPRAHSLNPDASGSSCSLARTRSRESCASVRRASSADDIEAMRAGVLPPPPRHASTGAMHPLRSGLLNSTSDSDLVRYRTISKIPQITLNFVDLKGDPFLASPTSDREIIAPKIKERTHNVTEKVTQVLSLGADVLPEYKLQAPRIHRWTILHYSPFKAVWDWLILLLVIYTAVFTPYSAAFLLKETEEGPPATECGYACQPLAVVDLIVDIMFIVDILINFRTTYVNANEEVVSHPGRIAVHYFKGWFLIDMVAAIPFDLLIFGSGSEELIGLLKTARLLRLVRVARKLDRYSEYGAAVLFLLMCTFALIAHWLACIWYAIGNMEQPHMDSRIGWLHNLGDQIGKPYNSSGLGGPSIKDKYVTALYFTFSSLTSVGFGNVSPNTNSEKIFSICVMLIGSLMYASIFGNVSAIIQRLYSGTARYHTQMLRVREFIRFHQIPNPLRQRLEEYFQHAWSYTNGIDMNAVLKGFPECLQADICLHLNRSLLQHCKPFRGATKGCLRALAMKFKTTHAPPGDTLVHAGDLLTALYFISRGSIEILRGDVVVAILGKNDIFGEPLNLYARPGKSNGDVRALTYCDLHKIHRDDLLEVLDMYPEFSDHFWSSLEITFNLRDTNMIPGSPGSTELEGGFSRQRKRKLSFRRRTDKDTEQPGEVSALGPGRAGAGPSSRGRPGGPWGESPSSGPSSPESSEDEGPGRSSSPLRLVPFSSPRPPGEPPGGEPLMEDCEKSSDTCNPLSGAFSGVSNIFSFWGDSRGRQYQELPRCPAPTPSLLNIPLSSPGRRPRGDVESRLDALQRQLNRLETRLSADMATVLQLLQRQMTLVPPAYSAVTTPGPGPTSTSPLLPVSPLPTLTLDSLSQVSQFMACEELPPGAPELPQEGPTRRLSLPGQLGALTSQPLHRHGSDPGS
TEST DETAILS: hERG Fast Patch assay (WuXiApptec)
Type: cell-based
# IC50 per entry

For orientation, consider the following solved cases.
C[C@]1(O)CC[C@H](Nc2ccc3ncc(-c4cccc(C(F)(F)F)c4)n3n2)CC1 ... 12 µM
CC(C)(O)[C@H]1CC[C@H](Nc2ccn3ncc(-c4cccc(C(F)(F)F)c4)c3n2)CC1 ... > 30 µM
CC(C)(O)[C@H]1CC[C@H](Nc2ccn3ncc(-c4cccc(Cl)c4)c3n2)CC1 ... > 30 µM

Asked: Recorded IC50 for "CC(C)(O)[C@H]1CC[C@H](Nc2ccc3ncc(-c4cccc(Cl)c4)n3n2)CC1" , please?
Given back: > 30 µM
